The following binders are shown together with reported binding score values.
- system.name: T1, CaBdf1 BD1 (GST-tagged, wild-type) (Candida albicans (strain SC5314 / ATCC …, UniProt Q5A4W8))
- T1 chain: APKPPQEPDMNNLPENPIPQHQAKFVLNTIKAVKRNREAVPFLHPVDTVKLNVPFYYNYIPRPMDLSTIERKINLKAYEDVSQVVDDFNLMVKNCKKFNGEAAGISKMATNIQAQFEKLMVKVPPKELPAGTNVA
- procedure.details: histone peptide array (Active Motif MODified), 1 uM GST-tagged bromodomain, anti-GST detection, normalized mean intensity
Square brackets hold non-standard residues; d marks the D form. Ends that are not written are not given here. Arg(Me2s) = CN=C(NC)NCCC[C@H](N)C(=O)O; pT = C[C@@H](OP(=O)(O)O)[C@H](N)C(=O)O; pS = N[C@@H](COP(=O)(O)O)C(=O)O; me2a = not defined here

ARTKQTARKSTGGKAPRKQ (A R T Kac Q T A Rme2s Kme3 S T G G K A P R K Q)	0.00689
A[Arg(Me2s)]TK(Me)QTARK(Me)STGGKAPRKQ	0.0029

// query binding score value for entry ARTK(Ac)QTARKSTGGKAPRKQ
0.00363

// query binding score value for entry ARTKQTARKSTGGKAPRKQ (A Rme2a T Kac Q T A Rme2s Kac S T G G K A P R K Q)
0.0334

// query binding score value for entry [pS]GRGKQGGKARAKAKSRSS [H2a 1-19]
0.0131

// query binding score value for entry AR(me2s)TK(Ac)QTAR(me2a)K(me2)STGGKAPRKQ (reading uncertain)
0.00979

// query binding score value for entry AR[pT]K(Me3)QTARKSTGGKAPRKQ
0.00435
